Experiment: Human HepG2 cell viability assay in 384 well format
Format: toxicity, cell-based
Design: dose 125 nL, time 70.5 hour; concentration not given beside the values
Settings: HepG2 cells, read-out: Inhibition
observed property: cytotoxicity at 70.5 h (%)

> print(dat)
                                    compound  assay.result
 1  COc1cc(Cl)cc(CN2CCCC(N3CCCC3)C2)c1OC (centres undefined)         -14.7
 2            c1cc(-c2cn[nH]c2)ccc1CN1CCNCC1         -3.83
 3  O=C(O)c1cnc(N2CCC(O)CC2)nc1COc1ccc(F)cc1         -21.6
 4  CN(C)c1cnnc(N2CCN(C(=O)CCC3CCCCC3)CC2)c1         -7.83
 5  Cc1ccccc1N1CCCN(C(=O)CN2C(=O)OC[C@@H]2C(C)C)CC1          25.8
 6  Cc1ccccc1C(C)NC(=O)CSCC#N (centres undefined)          12.8
 7  CC(=O)N(C)C1CCN(c2ncc3c(n2)CCN3c2ccccc2)C1 (centres undefined)         -3.48
 8      Cc1noc(C)c1CN(C)C(=O)CCOc1ccc(Cl)cc1         -11.7
 9  CN1CCN2CCN(C(=O)c3cc4ncc(CCO)cn4n3)CC2C1 (centres undefined)         -15.2
10  COc1cc(C)ccc1OCc1nc(C(=O)N2CCCNC(=O)C2)co1         -5.88
11  CC(C)c1cc(C(=O)N2C[C@H]3CC[C@@H]2CN(Cc2ccccn2)C3)no1         -7.13
12  CCN(C(=O)Nc1nccs1)C(C)c1cccc(O)c1 (centres undefined)          -9.8
13  Cc1nn(C)c(Cl)c1C1CCCN1Cc1cn2ccsc2n1 (centres undefined)         -1.16
14    Cc1c(F)cc(C(=O)O)cc1S(=O)(=O)Nc1ccccc1          3.77
15  Cc1nc2c(c(NCC(c3ccccc3C)N(C)C)n1)CCNC2 (centres undefined)          25.9
16  Cc1cnn(CCCn2ncc(N3CCC(CN)C3)cc2=O)c1 (centres undefined)          9.78
17  CC(C1CCN(Cc2cccc(OC(F)F)c2)CC1)N1CCOCC1 (centres undefined)         -9.64
18            O=C(CN1CCOCS1(=O)=O)NCc1ccccc1          25.7
19  CC(C)c1nnc(CNc2nc(-c3cccnc3)nc3c2CCC3)n1C         -1.97
20  O=C([C@H]1CN(Cc2ccccc2F)C[C@H]2OCC[C@@H]12)N1CCCO1          1.95
21      Cc1ccoc1C(=O)NC1CCN(Cc2ccccc2C#N)CC1         -1.98
22  CC(C)n1nc(CN2CCCCC2)c2c1CN(C(=O)c1ccno1)C2          -8.4
23     N#CC1(NC(=O)c2cc(Cl)ccc2OC(F)F)CCOCC1         -17.7
24         O=C(NCCCN1CCc2ccccc2C1)c1ccccc1Br         -7.72
